# MEASUREMENT_TARGET: T1, human CRH receptor type 2 (human, UniProt Q13324 1-411)
# T1 sequence (looked up): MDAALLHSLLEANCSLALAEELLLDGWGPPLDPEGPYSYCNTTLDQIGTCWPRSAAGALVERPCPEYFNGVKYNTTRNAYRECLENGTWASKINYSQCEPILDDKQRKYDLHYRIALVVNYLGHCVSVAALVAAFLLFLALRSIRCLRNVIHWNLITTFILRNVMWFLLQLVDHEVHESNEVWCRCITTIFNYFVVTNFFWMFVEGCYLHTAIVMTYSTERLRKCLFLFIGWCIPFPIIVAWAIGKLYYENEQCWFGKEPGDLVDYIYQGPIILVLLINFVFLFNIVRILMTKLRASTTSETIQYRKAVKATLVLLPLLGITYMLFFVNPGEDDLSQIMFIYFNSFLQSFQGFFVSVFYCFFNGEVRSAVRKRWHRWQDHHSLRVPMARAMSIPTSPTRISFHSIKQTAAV
# TEST_DESCRIPTION: cell-based or functional assay
No end group written: not given here.
Bucketed by reported Log DR against h-SCP, cAMP, buckets being low value: < 0.5 log10 ratio; medium value: ≥ 0.5 log10 ratio and < 1 log10 ratio; high value: ≥ 1 log10 ratio

Please review the entries below; each comes with its answer.
{"columns": ["BINDER", "CATEGORY"],
 "data": [
  ["TKFTLSLDVPTNCMNLLFNIAKAKNLRAQAAANAHLMAQI (NES-PEG (about 20 kDa) on Cys 13; C-terminal amide) [Pegylated Cys-variant CRHR2 peptide agonist (NES linker, PEG about 20 kDa), SEQ ID NO: 67]", "high value"],
  ["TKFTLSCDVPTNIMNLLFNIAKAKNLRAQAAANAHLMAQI (NES-PEG (about 20 kDa) on Cys 7; C-terminal amide) [Pegylated Cys-variant CRHR2 peptide agonist (NES linker, PEG about 20 kDa), SEQ ID NO: 61]", "high value"],
  ["TKFTLSLDVPTNIMNLLFNIAKAKNLRAQAAANAHCMAQI-NH2 [Cys-variant CRHR2 peptide agonist, SEQ ID NO: 37]", "high value"],
  ["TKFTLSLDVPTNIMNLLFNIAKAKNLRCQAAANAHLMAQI (NES-PEG MW30000 on Cys 28; C-terminal amide) [Pegylated Cys-variant CRHR2 peptide agonist (NES-PEG MW30000), SEQ ID NO: 99]", "medium value"],
  ["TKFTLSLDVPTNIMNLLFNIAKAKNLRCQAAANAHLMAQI (NES-PEG-NEM MW20000 on Cys 28 (double-ended linear PEG with an N-Ethylmaleimide cap at the non-linked end); C-terminal amide) [Pegylated Cys-variant CRHR2 peptide agonist (NES-PEG-NEM MW20000), SEQ ID NO: 98]", "low value"],
  ["TKFTLSLDVPTNIMNLLFNIAKAKCLRAQAAANAHLMAQI-NH2 [Cys-variant CRHR2 peptide agonist, SEQ ID NO: 26]", "low value"],
  ["TKFTLSLDVPTNIMNLLFNICKAKNLRAQAAANAHLMAQI-NH2 [Cys-variant CRHR2 peptide agonist, SEQ ID NO: 22]", "medium value"],
  ["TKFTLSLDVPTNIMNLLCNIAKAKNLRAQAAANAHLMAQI-NH2 [Cys-variant CRHR2 peptide agonist, SEQ ID NO: 19]", "high value"],
  ["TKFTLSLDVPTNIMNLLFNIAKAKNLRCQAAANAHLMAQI (NES-PEG MW80000, branched, on Cys 28; C-terminal amide) [Pegylated Cys-variant CRHR2 peptide agonist (NES-PEG MW80000 & BRANCHED), SEQ ID NO: 101]", "high value"],
  ["TKFTLSLDVPTCIMNLLFNIAKAKNLRAQAAANAHLMAQI-NH2 [Cys-variant CRHR2 peptide agonist, SEQ ID NO: 13]", "low value"]
]}

Q) Textbook exercise: identify the category of the binder given here, TKFTLSLDVPTNIMNLLFNIAKAKNLRAQAAACAHLMAQI (NES-PEG (about 20 kDa) on Cys 33; C-terminal amide) [Pegylated Cys-variant CRHR2 peptide agonist (NES linker, PEG about 20 kDa), SEQ ID NO: 87] , according to its measured value.
A) high value

Q) Class label required: TKFTLSLDVPCNIMNLLFNIAKAKNLRAQAAANAHLMAQI-NH2 [Cys-variant CRHR2 peptide agonist, SEQ ID NO: 12]
A) high value

Q) Which category does the recorded Log DR against h-SCP, cAMP put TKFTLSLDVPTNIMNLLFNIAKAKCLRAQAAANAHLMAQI (NES-PEG (about 20 kDa) on Cys 25; C-terminal amide) [Pegylated Cys-variant CRHR2 peptide agonist (NES linker, PEG about 20 kDa), SEQ ID NO: 79] in?
A) high value
